- Test system: Qol resistant Alternaria solani isolate (141)
- Method description: Microtest, activity against early blight pathogen Alternaria solani
- Format: cell-based
- Condition: single active compound, 0.25 ppm; MTP, 405 nm, 7 days after inoculation
# Observed efficacy annotations
Numbers only; they are read as %.

// fetch Observed efficacy given entry Cn1nnn(-c2cccc(Br)c2COc2ccn(-c3ccc(Cl)cc3)n2)c1=O [II-2]
0

Output Observed efficacy of CNC(=O)C(=N/OC)/C(C)=C\COc1ccn(-c2ccc(Cl)cc2Cl)n1 [Compound I-3]
0

Look up Observed efficacy of CNC(=O)C(=N/OC)/C(C)=C\COc1ccn(-c2ccc(Cl)cc2)n1 [Compound I-1] and report it.
0

Give Observed efficacy for the following compound: CC(=NOCc1c(C)cccc1-n1nnn(C)c1=O)c1cccc(C(F)(F)F)c1 [II-11]
15
